Tested on: L1210 leukemia ip in BDF1 mice, survival T/C
Measurement protocol: NCI In Vivo Anticancer Drug Screen. Data for tumor model L1210 Leukemia (intraperitoneal) in B6D2F1 (BDF1) mice
Settings: endpoint: mean survival time; dose: 200.0 mg/kg/injection; schedule: Q01DX009 (ip); vehicle: Klucel (hydroxypropylcellulose) (HPC); higher = longer survival
Toxic doses and inconclusive results are not listed.
Parameter: T/C. Scope: all listed entries.

Smiles string	Recorded measurement
O=C(c1cccc(F)c1)C(F)(F)F	104 % of control
C(=Nc1ccc2c(c1)Cc1ccccc1-2)c1ccccc1	96 % of control
CCCCNC(=O)Nc1ccc(SC)cc1	95 % of control
CCOc1ccc(/C=C/c2ccc(OCC)cc2)cc1	90 % of control
C/C(N=Nc1ccc([N+](=O)[O-])cc1)=N\Nc1ccccc1	112 % of control

If you can, please state the reported T/C value of COC(=O)c1ccccc1NC(=O)Nc1ccc(SC)cc1 . 92 % of control

Need T/C of CC(=O)c1cccc(NC(=O)Nc2ccc(I)cc2)c1 , thanks. 96 % of control

Quick one: T/C for CN(CCC(=O)c1cccc2ccccc12)Cc1ccccc1 ? 92 % of control

Reported T/C for COc1cccc(NC(=S)NNC(=S)NNc2ccccc2)c1 : what is it? 100 % of control

Find the recorded T/C belonging to Clc1ccc(N=Cc2ccccc2)cc1 and report it. 103 % of control

====

System: L1210 leukemia ip in BDF1 mice, survival T/C
Measurement protocol: NCI In Vivo Anticancer Drug Screen. Data for tumor model L1210 Leukemia (intraperitoneal) in B6D2F1 (BDF1) mice
Settings: endpoint: mean survival time; dose: 2.0 mg/kg/injection; schedule: Q01DX009 (ip); vehicle: saline; higher = longer survival
Toxic doses and inconclusive results are not listed.
Experimental readout: T/C

Given the entry NC(CSC(c1ccccc1)(c1ccccc1)c1ccc(Cl)cc1)C(=O)O (centres undefined) , report its measured T/C. 118 % of control

Entry COc1ccc2nc3cc(Cl)ccc3c(NCCCSCCCl)c2n1 : reported T/C = ? 116 % of control

Look up T/C for this molecule: CCC[CH2][Sn]([Cl])([CH2]CCC)[CH2]CCC 94 % of control

If you can, please state the reported T/C value of CC(O)C1(O)C(O)CC(OC2c3cc4c(c(O)c3[C@@H]3C[C@@]2(C)OC32C=c3cc[nH]c3=N2)C(=O)c2cccc(O)c2C4=O)OC1C (some centres undefined) . 112 % of control

====

Test system: L1210 leukemia ip in BDF1 mice, survival T/C
Measurement protocol: NCI In Vivo Anticancer Drug Screen. Data for tumor model L1210 Leukemia (intraperitoneal) in B6D2F1 (BDF1) mice
Settings: endpoint: mean survival time; dose: 50.0 mg/kg/injection; schedule: Q04DX003 (ip); vehicle: saline with Tween-80; higher = longer survival
Toxic doses and inconclusive results are not listed.
Experimental readout: T/C

Param item = O/N=C(\CC(O)(C(F)(F)F)C(F)(F)F)c1cccs1 ; retrieve measured T/C. 98 % of control

Look up T/C: O=C(Nc1ccc(F)cc1)c1cccc(C(=O)Nc2ccc(F)cc2)c1 93 % of control

T/C lookup needed for CCOC(=O)CN(C(=O)OCc1ccccc1)N(C)C(=O)OCc1ccccc1 , thanks. 94 % of control

# query: T/C of entry Fc1cccc(CSC(=S)Nc2ccc(Cl)c(Cl)c2)c1 101 % of control

Report T/C for C=C(Br)CNC(=O)OC please. 105 % of control

Looking for the measured T/C of COC1OC2COC(c3ccccc3)OC2C(O)C1N (stereo not drawn) , can you help? 93 % of control

Given the entry CCN(CC)CCOc1ccc(-c2ccccc2)cc1 , report its measured T/C. 98 % of control

Can you look up the measured T/C of CS/C(N)=N/N=C(\N)SC for me? 90 % of control
